TARGET OF ASSAY: Full-length human PRMT6 (1-375) (Homo sapiens (Human))
Sequence (Q96LA8 whole entry): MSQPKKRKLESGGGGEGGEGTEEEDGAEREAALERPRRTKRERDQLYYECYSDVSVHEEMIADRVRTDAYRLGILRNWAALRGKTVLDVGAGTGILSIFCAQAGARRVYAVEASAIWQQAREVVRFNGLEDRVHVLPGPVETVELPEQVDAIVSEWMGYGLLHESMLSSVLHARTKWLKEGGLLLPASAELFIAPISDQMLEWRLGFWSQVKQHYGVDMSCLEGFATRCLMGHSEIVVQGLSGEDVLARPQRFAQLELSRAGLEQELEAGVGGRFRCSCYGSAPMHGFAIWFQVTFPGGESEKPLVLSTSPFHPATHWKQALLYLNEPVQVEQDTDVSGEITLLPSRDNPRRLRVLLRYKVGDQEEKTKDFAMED
TEST NAME: PRMT6 RapidFire Mass Spectrometry Selectivity Assay (SAH production)
EXPERIMENTAL CONDITIONS: read-out: PRMT-6 IC50; Rapid fire enzyme assay; 3 μM SAM, 250 nM Histone H4 (36-50) K44 MeI
READOUT: IC50 (nM)
Expressed in nM, but write only the number.

Look up and report measured IC50 for this entry: "CNCCN(C)Cc1nn2c(c1C1CCCCC1)CCC2"
99

====

TARGET OF ASSAY: PRMT1 (Homo sapiens (Human), UniProt Q99873)
Sequence (Q99873 whole entry): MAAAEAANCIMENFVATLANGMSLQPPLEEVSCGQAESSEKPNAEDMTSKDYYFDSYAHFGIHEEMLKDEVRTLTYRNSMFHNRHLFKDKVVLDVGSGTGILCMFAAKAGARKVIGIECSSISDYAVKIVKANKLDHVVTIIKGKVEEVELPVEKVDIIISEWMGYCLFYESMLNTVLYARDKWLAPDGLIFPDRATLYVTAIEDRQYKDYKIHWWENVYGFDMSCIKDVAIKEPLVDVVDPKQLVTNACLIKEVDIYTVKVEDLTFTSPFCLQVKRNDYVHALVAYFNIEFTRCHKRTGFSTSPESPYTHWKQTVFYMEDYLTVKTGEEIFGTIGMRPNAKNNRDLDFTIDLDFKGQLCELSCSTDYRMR
READOUT: IC50 (nM)
Write the value in nM as a bare number.

Please look at this molecule and report its IC50: "CCOCC1(COCC)CCC(c2c(CNCCN)nn3c2CC(F)(F)C3)CC1"
73

====

TARGET OF ASSAY: Full-length human GST-PRMT4 (Homo sapiens (Human), UniProt Q86X55)
Sequence (Q86X55 whole entry): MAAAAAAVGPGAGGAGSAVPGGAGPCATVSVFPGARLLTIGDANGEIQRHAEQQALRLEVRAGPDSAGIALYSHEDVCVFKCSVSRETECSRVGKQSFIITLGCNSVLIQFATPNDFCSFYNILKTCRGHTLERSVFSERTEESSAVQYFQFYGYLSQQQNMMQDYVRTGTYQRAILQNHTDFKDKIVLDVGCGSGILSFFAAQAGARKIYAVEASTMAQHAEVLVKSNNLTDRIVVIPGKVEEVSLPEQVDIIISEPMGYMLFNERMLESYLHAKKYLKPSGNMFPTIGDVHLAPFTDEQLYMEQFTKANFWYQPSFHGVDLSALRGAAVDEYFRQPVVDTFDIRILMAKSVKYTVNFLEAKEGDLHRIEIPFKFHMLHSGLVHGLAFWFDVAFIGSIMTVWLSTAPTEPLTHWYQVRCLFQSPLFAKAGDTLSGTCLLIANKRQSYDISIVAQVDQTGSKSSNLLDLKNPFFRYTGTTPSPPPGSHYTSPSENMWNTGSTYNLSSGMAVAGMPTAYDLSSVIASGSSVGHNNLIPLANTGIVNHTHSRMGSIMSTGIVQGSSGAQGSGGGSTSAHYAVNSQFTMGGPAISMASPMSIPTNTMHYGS
TEST NAME: PRMT4 RapidFire Mass Spectrometry Selectivity Assay (SAH production)
Type: biochemical
EXPERIMENTAL CONDITIONS: Rapid fire enzyme assay; 0.5 μM SAM, 15 nM Histone H3.3; read-out: PRMT-4 IC50
READOUT: IC50 (nM)
Number only, in nM; omit the unit.

CNCCN(C)Cc1nn2c(c1C1CCCCC1)CCCC2 [Example 21]: 1120
CNCCN(C)Cc1nn2c(c1C1CCC(C)(C)CC1)CCC2 [Example 51]: 337
CCOCC1(COCC)CCC(c2c(CN(C)CCNC)nn3c2CCC3)CC1 [Example 2]: 79
CNCCN(C)Cc1nn2c(c1C1CCC3(CCCC3)CC1)CCC2 [Example 49]: 114

// next entry
Please list IC50 recorded for the compound CNCCN(C)Cc1nn2c(c1C1CCCCC1)CCC2 [Example 11]
654
